Form field: pIC50 (one value per entry).
Target: PD-1/PD-L1 (Homo sapiens)
Construct: Recombinant human PD-L1 protein (19-238) with a His-tag at the C-terminus; purchased AcroBiosystems PD1-H5229 (PD-L1); PD1-H5257 (PD-1)
Assay: PD-1/PD-L1 homogenous time-resolved fluorescence (HTRF) binding assay
Details: Table 6, numeric values
Field pIC50 (float): negative decimal logarithm of the concentration in molar.

Some compounds with recorded pIC50:
Cc1c(-c2ccccc2)cccc1-c1nc2cc(CN[C@H](CO)C(=O)O)c(OC(F)F)cc2o1; 8.47
Cc1c(-c2ccccc2)cccc1-c1nc2cc(CN3CCC[C@H]3C(=O)O)c(F)cc2o1; 8.14
Cc1c(-c2ccccc2)cccc1-c1nc2cc(CN3CCC[C@H]3C(=O)O)c(C(F)(F)F)cc2o1; 8.85

Let us move to another entry and its pIC50.
# compound Cc1c(-c2ccccc2)cccc1-c1nc2cc(CN3CCC[C@H]3C(=O)O)c([S+](C)[O-])cc2o1 (stereo partly shown) ; its pIC50 = 8.30

* * *

Reported Tmax values for a set of molecules
Assay: Pharmacokinetic Assay
Type: in vivo
Conditions: rat; male rats, single oral (intragastric) dose 25 mg/kg, plasma
Reply numerically in min, unit not repeated.

Completed entries (count: 2):
Cc1c(-c2ccccc2)cccc1-c1nc2cc(CN3CCC[C@H]3C(=O)O)c(OC(F)F)cc2o1 [Example 36]; 30
Cc1c(-c2ccccc2)cccc1-c1nc2cc(CN3CCC[C@H]3C(=O)O)c(C(F)(F)F)cc2o1 [Example 28]; 18

Now take the following molecule into account.
Form: molecule = Cc1cc2oc(-c3cccc(-c4ccccc4)c3C)nc2cc1CN1CCCC[C@H]1C(=O)O [Example 22] ; Tmax = 60

* * *

Target: PD-1/PD-L1 (Homo sapiens, UniProt Q9NZQ7)
Construct: Recombinant human PD-L1 protein (19-238) with a His-tag at the C-terminus; purchased AcroBiosystems PD1-H5229 (PD-L1); PD1-H5257 (PD-1)
Sequence (Q9NZQ7 19-238): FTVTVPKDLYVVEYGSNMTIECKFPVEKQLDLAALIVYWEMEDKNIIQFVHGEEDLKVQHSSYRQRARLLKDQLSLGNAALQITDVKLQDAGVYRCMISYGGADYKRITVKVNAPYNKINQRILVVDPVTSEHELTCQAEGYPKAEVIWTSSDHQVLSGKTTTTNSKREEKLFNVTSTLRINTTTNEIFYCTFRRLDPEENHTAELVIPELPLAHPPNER
Assay: PD-1/PD-L1 homogenous time-resolved fluorescence (HTRF) binding assay
Details: Table 6, class symbols
pIC50: −log10 of the molar value.
Documented pIC50 across a set of molecules

Noted for Cc1c(-c2ccccc2)cccc1-c1nc2cc(CN3COC[C@H]3C(=O)O)c(OC(F)F)cc2o1 [Example 53] : its pIC50 reads 7.00 to 8.00

For Cc1c(-c2nc3cc(CN4CCC[C@H]4C(=O)O)c(OC(F)F)cc3o2)cccc1-c1ccccc1C#N [Example 51] the molecule record lists pIC50 as 7.00 to 8.00

Sample Cc1c(-c2ccccc2)cccc1-c1nc2cc(CN3CC[C@H](O)C3)c(F)cc2o1 [Example 23] ; pIC50 observed: 7.00 to 8.00

Notebook: Cc1c(-c2ccccc2)cccc1-c1nc2cc3c(cc2o1)OCCN(CC(=O)O)C3 [Example 71] , pIC50 read as 6.00 to 7.00

Memo: Cc1c(-c2ccccc2)cccc1-c1nc2cc(CN3CCCCC3C(=O)O)c(OCC(F)F)cc2o1 (centres unmarked) [Example 55] , reported pIC50: 7.00 to 8.00

Form field pIC50, entry Cc1c(-c2ccccc2)cccc1-c1nc2cc3c(cc2o1)OCCN(C)C3 [Example 67] : 6.00 to 7.00

pIC50 measured on CSc1cc2oc(-c3cccc(-c4ccccc4)c3C)nc2cc1CN[C@H](C(=O)O)[C@H](C)O [Example 4] = 8.00 to 10.00

Entry Cc1c(-c2ccccc2)cccc1-c1nc2cc(CN[C@H](C)C(=O)O)c(OC(F)F)cc2o1 [Example 34] — recorded pIC50 = 7.00 to 8.00
